System: Staphylococcus aureus ATCC 6538
Test: AOAC Official Method 961.02 Germicidal Spray Method, bacteria on glass carriers
Assay type: cell-based
Conditions: CMC + QAH, QAH 0.100%; 10 min contact
REPORTED ENDPOINT: Staphylococcus aureus Growth Rate (%)
Answer with a number only, understood to be in %.

Look over these answered cases.
| COMPOUND | TARGET ENTITY | Staphylococcus aureus Growth Rate, % |
| --- | --- | --- |
| CCCC[N+](CCCC)(CCCC)Cc1ccccc1.[Cl-] [BTBAC, Benzyltri-n-butylammonium chloride] | Staphylococcus aureus ATCC 6538 | 100 |
| CCCCCCCCCCCCCCCC[N+](C)(C)Cc1ccccc1.[Cl-] | Staphylococcus aureus ATCC 6538 | 0 |
| CCCCCCCCCCCCCCCCCC[N+](C)(C)C.[Cl-] [TMSAC, Trimethylstearylammonium chloride] | Staphylococcus aureus ATCC 6538 | 0 |
| CC(C)(C)CC(C)(C)c1ccc(OCCOCC[N+](C)(C)Cc2ccccc2)cc1 [BZT, Benzethonium chloride] | Staphylococcus aureus ATCC 6538 | 0 |

**Q:** // returns reported Staphylococcus aureus Growth Rate for input CC[N+](CC)(CC)Cc1ccccc1.[Cl-] [BTEAC, Benzyltriethylammonium chloride]
**A:** 100

---

System: Staphylococcus aureus ATCC 6538
Assay: AOAC Official Method 961.02 Germicidal Spray Method, bacteria on glass carriers
Type: cell-based
Details: Water + QAH, QAH 1.000%; 10 min contact
REPORTED ENDPOINT: Staphylococcus aureus Growth Rate (%)
Answer with a number only, understood to be in %.

| MOLECULE | TARGET ENTITY | Staphylococcus aureus Growth Rate, % |
| --- | --- | --- |
| CC[N+](CC)(CC)Cc1ccccc1.[Cl-] [BTEAC, Benzyltriethylammonium chloride] | Staphylococcus aureus ATCC 6538 | 100 |

**Q:** Give the reported Staphylococcus aureus Growth Rate for CCCCCCCCCCCCCCCC[N+](C)(C)Cc1ccccc1.[Cl-] (system: Staphylococcus aureus ATCC 6538).
**A:** 0

**Q:** Give the reported Staphylococcus aureus Growth Rate for CCCCCCCCCCCCCCCCCC[N+](C)(C)C.[Cl-] [TMSAC, Trimethylstearylammonium chloride] (system: Staphylococcus aureus ATCC 6538).
**A:** 50

**Q:** Give the reported Staphylococcus aureus Growth Rate for CCCC[N+](CCCC)(CCCC)Cc1ccccc1.[Cl-] [BTBAC, Benzyltri-n-butylammonium chloride] (system: Staphylococcus aureus ATCC 6538).
**A:** 100

**Q:** Give the reported Staphylococcus aureus Growth Rate for CC(C)(C)CC(C)(C)c1ccc(OCCOCC[N+](C)(C)Cc2ccccc2)cc1 [BZT, Benzethonium chloride] (system: Staphylococcus aureus ATCC 6538).
**A:** 0
